target-desc: human orexin 2 receptor (Homo sapiens, UniProt O43614)
Construct: expressed in transfected cells
Sequence (O43614 whole entry): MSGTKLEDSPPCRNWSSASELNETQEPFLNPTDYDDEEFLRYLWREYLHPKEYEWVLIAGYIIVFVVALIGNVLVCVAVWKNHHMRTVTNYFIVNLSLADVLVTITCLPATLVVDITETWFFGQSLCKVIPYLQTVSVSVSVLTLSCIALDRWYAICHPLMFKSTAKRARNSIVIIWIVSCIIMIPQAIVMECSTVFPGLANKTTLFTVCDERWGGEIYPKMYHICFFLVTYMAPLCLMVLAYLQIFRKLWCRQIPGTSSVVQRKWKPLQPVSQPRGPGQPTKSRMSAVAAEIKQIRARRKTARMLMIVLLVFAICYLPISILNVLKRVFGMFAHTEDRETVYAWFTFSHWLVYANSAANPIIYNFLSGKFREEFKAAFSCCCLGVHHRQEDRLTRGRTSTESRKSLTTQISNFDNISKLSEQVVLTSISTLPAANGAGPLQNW
protocol-details: Calcium accumulation in cells (FLIPR), antagonism of orexin A, human orexin 2 receptor
Assay type: cell-based
particulars: measured at a concentration of 10 μM of compound; read-out: FLIPR hOx2R % inhibition

# compound, measure-unit, inhibition at 10 µM
data = [
    ("COc1ccnc(N2CCC3(CCN(Cc4c[nH]c5ncccc45)C3=O)C2)n1 (stereo not shown)", "%", 26),
    ("CNC(=O)c1cccc(-c2cn(C)nc2CN2CCNC3(CCN(c4nc(C)cc(C)n4)CC3)C2=O)c1", "%", 38),
    ("Cc1cc(N2CCC3(CCN(Cc4c[nH]c5ccccc45)C3=O)C2)nc(C)n1 (stereo not shown)", "%", 24),
    ("COc1cccc(-c2cn(C)nc2CN2CCNC3(CCN(c4nc(C)cc(C)n4)CC3)C2=O)n1", "%", 32),
]

----------
target-desc: human orexin 1 receptor (Homo sapiens, UniProt O43613)
Sequence (O43613 whole entry): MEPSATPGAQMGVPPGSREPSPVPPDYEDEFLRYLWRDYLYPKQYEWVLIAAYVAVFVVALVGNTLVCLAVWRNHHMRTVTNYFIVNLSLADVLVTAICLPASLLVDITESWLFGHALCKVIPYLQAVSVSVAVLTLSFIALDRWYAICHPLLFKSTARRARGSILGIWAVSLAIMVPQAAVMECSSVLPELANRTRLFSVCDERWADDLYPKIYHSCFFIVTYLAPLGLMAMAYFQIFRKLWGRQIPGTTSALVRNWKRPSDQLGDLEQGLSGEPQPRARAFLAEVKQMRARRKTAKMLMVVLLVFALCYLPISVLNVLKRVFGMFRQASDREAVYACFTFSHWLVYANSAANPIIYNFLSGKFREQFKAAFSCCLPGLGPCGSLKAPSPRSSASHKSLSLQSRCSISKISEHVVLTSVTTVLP
protocol-details: Calcium accumulation in cells (FLIPR), antagonism of orexin A, human orexin 1 receptor
particulars: calcium accumulation, antagonism of orexin A, Cheng-Prusoff corrected; read-out: FLIPR hOx1R Ki
readout: Ki

# molecule, readout, result-value
rows = [
    ("CC(C)c1ccnc(N2CCC3(CCN(Cc4c[nH]c5ccccc45)C3=O)C2)n1 (centres unmarked)", "Ki", "1210 nM"),
    ("COc1ccnc(N2CCC3(CCCN(Cc4n[nH]c5ccccc45)C3=O)C2)n1 (centres unmarked)", "Ki", "1430 nM"),
    ("Cc1cc(C)nc(N2CCC3(CC2)NCCN(Cc2nn(C)cc2-c2cccc(N4CCOCC4)c2)C3=O)n1", "Ki", "862 nM"),
    ("Cc1cc(C)nc(N2CCC3(CC2)NCCN(Cc2nn(C)cc2-c2ccc4c(c2)OCCO4)C3=O)n1", "Ki", "836 nM"),
    ("CCc1cc(C)nc(N2CCC3(CC2)OCCN(Cc2c[nH]c4ccccc24)C3=O)n1", "Ki", "582 nM"),
    ("COc1cccc(N2CCC3(CCN(Cc4c[nH]c5ccccc45)C3=O)CC2)n1", "Ki", "3770 nM"),
    ("COCc1cccc(-c2nn(C)nc2CN2CCNC3(CCN(c4nc(C)cc(C)n4)CC3)C2=O)c1", "Ki", "1640 nM"),
    ("Cc1cc(C)nc(N2CCC3(CC2)NCCN(Cc2nn(C)cc2-c2cccc(C(F)F)c2)C3=O)n1", "Ki", "2060 nM"),
    ("Cc1noc(-c2ccnc(N3CCC4(CCN(Cc5c[nH]c6ccccc56)C4=O)C3)c2)n1 (centres unmarked)", "Ki", "2150 nM"),
    ("Cn1ccnc1-c1ccnc(N2CCC3(CCN(Cc4c[nH]c5ccccc45)C3=O)C2)n1 (centres unmarked)", "Ki", "923 nM"),
    ("Cc1cc(C)nc(N2CCC3(CC2)NCCN(Cc2nn(C)cc2-c2cccc(OCCOC(C)C)c2)C3=O)n1", "Ki", "1590 nM"),
    ("COc1cccc(-c2n[nH]nc2CN2CCNC3(CCN(c4nc(C)cc(C)n4)CC3)C2=O)c1", "Ki", "304 nM"),
    ("O=C1N(Cc2c[nH]c3ccccc23)CCC12CCN(c1cc(N3CCCC3)ncn1)C2 (centres unmarked)", "Ki", "1770 nM"),
    ("Cc1cc(C)nc(N2CCC3(CC2)NCCN(Cc2nc(C)oc2-c2ccccc2)C3=O)n1", "Ki", "2650 nM"),
    ("O=C1COCC2(CCN(c3cnc4ccccc4n3)CC2)N1Cc1cccc(-c2ccccn2)c1", "Ki", "53 nM"),
    ("Cc1cc(C)nc(N2CCC3(CC2)NCCN(Cc2nn(C)cc2-c2cccc(OCC(C)C)c2)C3=O)n1", "Ki", "331 nM"),
    ("Cc1cc(C)nc(N2CCC3(CC2)NCCN(Cc2nn(C)cc2-c2cccc(Cl)c2)C3=O)n1", "Ki", "3280 nM"),
    ("Cc1cc(C)nc(N2CCC3(CC2)OCCN(Cc2c[nH]c4ccc(F)cc24)C3=O)n1", "Ki", "1060 nM"),
    ("COc1cc(C)nc(N2CCC3(CCCN(Cc4ccccc4-c4nc(C)no4)C3=O)C2)n1 (centres unmarked)", "Ki", "174 nM"),
    ("COc1ccc2[nH]nc(CN3CCNC4(CCN(c5nc(C)cc(C)n5)CC4)C3=O)c2c1", "Ki", "594 nM"),
    ("COc1cccc(-c2nn(C)nc2CN2CCCC3(CCN(c4nccc(OC)n4)C3)C2=O)c1 (centres unmarked)", "Ki", "537 nM"),
    ("Cc1cc(C)nc(N2CCC3(CC2)NCCN(Cc2nn(C)cc2-c2cccc(OC(F)(F)F)c2)C3=O)n1", "Ki", "2040 nM"),
    ("Cc1ccnc(N2CCC3(CCCN(Cc4c[nH]c5ccccc45)C3=O)C2)n1 (centres unmarked)", "Ki", "304 nM"),
]

Recorded values, source patent US20120165331A1.
